Provide the reported EC50, CreLuc assay, 100% hP of each item.
# MEASUREMENT TARGET: T1, human neuropeptide Y2 (NPY2) receptor (human, UniProt P49146 1-381)
# T1 sequence (looked up): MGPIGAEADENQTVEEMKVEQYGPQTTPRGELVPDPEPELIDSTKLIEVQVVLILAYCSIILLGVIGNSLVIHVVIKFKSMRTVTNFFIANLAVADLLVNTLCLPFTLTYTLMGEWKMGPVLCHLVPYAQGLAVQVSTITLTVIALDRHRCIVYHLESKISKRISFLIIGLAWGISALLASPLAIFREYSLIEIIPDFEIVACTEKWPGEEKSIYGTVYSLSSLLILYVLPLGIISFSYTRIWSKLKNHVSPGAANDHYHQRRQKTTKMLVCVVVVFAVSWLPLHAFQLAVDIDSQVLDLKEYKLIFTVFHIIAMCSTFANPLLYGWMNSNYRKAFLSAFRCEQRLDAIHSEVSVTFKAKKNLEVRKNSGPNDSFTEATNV
# EXPERIMENTAL PROTOCOL: cell-based or functional assay
API: value field is a number in nM; no unit string.

Task: Fill in: EC50, CreLuc assay, 100% hP of YXEGTFTSDYSIXLEKQAQXAFVQWLIKGGPESPASLRHYYNWLTRQRY (Aib at 2, 13, 20; K28 side chain: C18DA-gGlu-gGlu-gGlu-gGlu-gGlu; C-terminal NH2) [Compound 12] is ___
Result: 45.8

Task: Fill in: EC50, CreLuc assay, 100% hP of YXEGTFTSDYSIXLEKQAQXAFVEWLIKGGPSSGASXRHYXNWLTRQRY (Aib at 2, 13, 20, 37, 41; K28 side chain: C20DA-gGlu-gGlu-Glu-gGlu-gGlu-gGlu-eLys; C-terminal NH2) [Compound 76] is ___
Result: 158

Task: Fill in: EC50, CreLuc assay, 100% hP of YXEGTFTSDYSIXLEKQAQXAFVEWLIKGGPSSGQSXRHYYNWLTRQRY (Aib at 2, 13, 20, 37; K28 side chain: C20DA-gGlu-gGlu-gGlu-gGlu-gGlu-gGlu-eLys; C-terminal NH2) [Compound 44] is ___
Result: 24.5
